Known apparent KD of MS2 coat protein of a selection of sequences
System: MS2 coat protein
PROTOCOL SUMMARY: apparent KD of MS2 coat protein; designed switch direction (-1 OFF switch, 1 ON switch): -1; higher = weaker reporter binding
MEASUREMENT CONTEXT: input ligand: FMN 200 uM
EXPERIMENTAL ENDPOINT: apparent KD of MS2 coat protein

- RESIDUE STRING: "AGUACUAUCACGAAAGUGAUAGUACAAAUAGCAAGUGAAACAUGAGGAUCACCCAUGUCCUCAUUUGCUCGUCUUAA [Mat - Sensor v2 -ver2- JL mod - D66] (Eterna round: R96, puzzle: Sensor v2, turn-off variant 2)"
  RECORDED VALUE: "0.0126 µM"
- RESIDUE STRING: "UAUGGUUAAGUCAGGAUAUACAUACAGAAAUCUGAGUAGAAGGGACAUGAGGAUCACCCAUGUAUGGUAGUGUU [Ex4 #55] (Eterna round: R97, puzzle: Brourd's mod of Exclusion 4)"
  RECORDED VALUE: "0.141 µM"

* * *

As shown below, each of these sequences has a reported apparent KD of K4 kissing-loop reporter value.
Test system: K4 kissing-loop RNA reporter;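 also: bound reporter read as fluorescence of individual clusters on recovered sequencing chips by microscopy, with normalized cluster intensities fitted with a binding model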
PROTOCOL SUMMARY: apparent KD of K4 kissing-loop reporter; higher = weaker reporter binding
MEASUREMENT CONTEXT: Eterna round: R107; input ligand: tryptophan 2.4 mM

- RESIDUE STRING: "UGGACCUGACUCGAUAAGAGUCAAAGGGAUACCAGCCACGAAAGUGGCCCUUGGCAGCUCUGCCAGUGAUGUUGGUCAAGGUCCU [#SwitchBubble 6 #StaticStem]"
  apparent KD of K4 kissing-loop reporter / nM: 854
- RESIDUE STRING: "CACCUAGGUACGGCCGCCACUAGAAGUGAUGUUUCGUCUGGUUCCGCAUUACGUGUACUUUCUUAUAGGACCGGGUAGCAAAUAG [theeternabot_exclusion_KL_Trp_B_3]"
  apparent KD of K4 kissing-loop reporter / nM: 311
- RESIDUE STRING: "UGUACCGAGUCAGGAUAUCAUAAAGUUGGAGUGAUGUUCCAAUAACGACUGACAAAGUCGGUCGAUUGAGAAGGGACUUGGUACU [FmnBS 9 #SwitchBubble #StaticStem]"
  apparent KD of K4 kissing-loop reporter / nM: 151
- RESIDUE STRING: "UUGGUUGUCGUAGGAUAUGUAGGAUAUUCUAAAAUAUGAAGUGAUGUUUCUAUAAUAAGAAGAAGGACAGAAGGACGAUAACCAU [FmnBS 2 - Salish transfer #DoubleAptamer]"
  apparent KD of K4 kissing-loop reporter / nM: 99.1
- RESIDUE STRING: "UUAGCAGUAUACUGCAAGACCUAUACUGAUACCAGAGCCUAUAGGCUCCCUUGGCAGCGGAUCGAGUGAUGUUCGUAAGGUCAUU [AK4.3 SS Theophylline A]"
  apparent KD of K4 kissing-loop reporter / nM: 458
- RESIDUE STRING: "UGACAUUGCUCAGAUACCAGACUUGAGGAACACCCAAGUGCCAAACGUACAAUAAUAAAAGUCCCUUGGCAGCUGAGCAAUGUCU [TheoBX 14]"
  apparent KD of K4 kissing-loop reporter / nM: 59.8

* * *

Tested on: MS2 coat protein
PROTOCOL SUMMARY: apparent KD of MS2 coat protein; higher = weaker reporter binding
MEASUREMENT CONTEXT: Eterna round: R107; input ligand: arginine 13.2 mM
EXPERIMENTAL ENDPOINT: apparent KD of MS2 coat protein (nM)

- RESIDUE STRING: "UGUAUUACGAAAGUAGUACAUCGUGUUCGACGAGGACCGGUACGGCCGCCACUCGGACAUGAGGAUCACCCAUGUAGCGAAAGCU [Tryptophan A 25]"
  EXPERIMENTAL ENDPOINT: "apparent KD of MS2 coat protein"
  UNIT STRING: "nM"
  RECORDED VALUE: 93.8
- RESIDUE STRING: "AUAAAUAUAACCGAUACCAGCCUUAUACAUGAGGAUCACCCAUGUUAUGCUUCCUUUCUUGGCCCUUGGCAGCGGAAAUGGGUAA [SSTheo B #13]"
  EXPERIMENTAL ENDPOINT: "apparent KD of MS2 coat protein"
  UNIT STRING: "nM"
  RECORDED VALUE: 36.2
- RESIDUE STRING: "UGGUACAUGGCGGCCGCCACUUCACGUAAAAUAAAAACUUGAGGAUCACCCAAGUAAUAAGUUGGGAGGACCGGGUCAUGUACCU"
  EXPERIMENTAL ENDPOINT: "apparent KD of MS2 coat protein"
  UNIT STRING: "nM"
  RECORDED VALUE: 18.4
- RESIDUE STRING: "CGUACAUGAGGAUCACCCAUGUAGAGUGAUACCAGUCUACCUAGUGACCCUUGGCAGCACAUCGAUGGCAUCGGUGAUGCCGUUU [Atveti]"
  EXPERIMENTAL ENDPOINT: "apparent KD of MS2 coat protein"
  UNIT STRING: "nM"
  RECORDED VALUE: 70.1
- RESIDUE STRING: "UUCAGCUAGUCGGCCGCCACUACCUGAGGAUCACCCUGGUAAUCCUAACACUGCUUCGGCAGUGGUAGGACCGGGACUAGCUGAG"
  EXPERIMENTAL ENDPOINT: "apparent KD of MS2 coat protein"
  UNIT STRING: "nM"
  RECORDED VALUE: 27.7
- RESIDUE STRING: "UAAUAUCACAUAUUAUGGGUGUAAUGUGAUACCAGCUAGGAAACUAGCCCUUGGCAGCACAUGAGGAUCACCCAUGUAAGCUGUA [(T1)'-(M)'-(T1)-(T2)-(M1)-(M2)-(T2)'_Design4_2/19/17]"
  EXPERIMENTAL ENDPOINT: "apparent KD of MS2 coat protein"
  UNIT STRING: "nM"
  RECORDED VALUE: 29.1
- RESIDUE STRING: "GACCGAUUAUAGCGCGAUUGUCUUGUGGAAGGAGCGCAGAGGGCUGCAGGUAGGUCGCCACAUGAGGAUCACCCAUGUCAGGAUA [Ananvediri]"
  EXPERIMENTAL ENDPOINT: "apparent KD of MS2 coat protein"
  UNIT STRING: "nM"
  RECORDED VALUE: 30.5
- RESIDUE STRING: "ACAUUUAACUGAAGGAGCGUGAAUAACAUGAGGAUCACCCAUGUAACUUAGAUGCUUAUUUCACAGGUAGGUCGCAGACUAAUGA [JR_ExcArginiB_Sub010]"
  EXPERIMENTAL ENDPOINT: "apparent KD of MS2 coat protein"
  UNIT STRING: "nM"
  RECORDED VALUE: 10.4
- RESIDUE STRING: "CUCCUGGGAGCGGCCGCCACUGGAGGCCUUGCGCGACAUGAGGAUCACCCAUGUUGUCCCGGCCUCAGGACCGGGUUCGCGCGAG [Same State - Tryptophan B Attempt #1]"
  EXPERIMENTAL ENDPOINT: "apparent KD of MS2 coat protein"
  UNIT STRING: "nM"
  RECORDED VALUE: 6.5
- RESIDUE STRING: "AGACAUGAGGAUCACCCAUGUAGCACGGAUACCAGAUCCAGAUUUAUCCCUUGGCAGCUGUGGUACAGCGUUGCAACGCUCCUAG [Exclusion - Theophylline A (Freestyle 16)]"
  EXPERIMENTAL ENDPOINT: "apparent KD of MS2 coat protein"
  UNIT STRING: "nM"
  RECORDED VALUE: 17.6
- RESIDUE STRING: "UGUAUGUGAUUUGAUACCAGACCAGCUGGUGUUACAAGAGGAUCACCCUUGUAGGUUUGGGUCCCUUGGCAGCAAAUCGCAUACU [SS Theo B #24 Ms4]"
  EXPERIMENTAL ENDPOINT: "apparent KD of MS2 coat protein"
  UNIT STRING: "nM"
  RECORDED VALUE: 94.2
- RESIDUE STRING: "UCGUGUAUAACGGAUACCAGUGAGAAGGAUACAUGAGGAUCACCCAUGUGAGUUGAUGUACACCCUUGGCAGCUGUAUAUAUCUA [llpmullin]"
  EXPERIMENTAL ENDPOINT: "apparent KD of MS2 coat protein"
  UNIT STRING: "nM"
  RECORDED VALUE: 58.3
